# Tested on: 485176-168-R4-J1-PDC complex spheroid growth
# Assay text: Anticancer human tumor 485176-168-R4-J1-PDC patient-derived pancreatic adenocarcinoma cell line growth inhibition [RAS]
# Test parameters: second compound 0.03 µM; first compound 0.316 µM; stronger effect = lower value
viability, T/C overview

Recorded results for 2 compounds are shown here.
| Compound | Result |
| --- | --- |
| C[C@@H](NC(=O)c1ncnc(N)c1Cl)c1ncc(C(=O)Nc2cc(C(F)(F)F)c(Cl)cn2)s1 + CCn1c(-c2cc(N3CCN(C)CC3)cnc2C(C)OC)c2c3cc(ccc31)-c1csc(n1)CC(NC(=O)C1CC1C)C(=O)N1CCCC(N1)C(=O)OCC(C)(C)C2 | 89.5% |
| Cc1nc(N2CCC3(CC2)COC(C)C3N)c(CO)nc1Sc1ccnc(N)c1Cl (stereo not drawn) + CCn1c(-c2cccnc2C(C)OC)c2c3cc(ccc31)N1CCOC(CC(NC(=O)C(C(C)C)N(C)C(=O)C3(F)CCN(C(=O)C#CC(C)(C)N(C)C)CC3)C(=O)N3CCCC(N3)C(=O)OCC(C)(C)C2)C1 | 92.2% |

# ---- query compound ----
*Q* Fill blank: measured viability, T/C of the compound CC(Nc1ccc2c(c1)OCCn1cc(N3C(=O)OCC3C(F)F)nc1-2)C(N)=O (stereo not drawn) + CCn1c(-c2cccnc2C(C)OC)c2c3cc(ccc31)N1CCOC(CC(NC(=O)C(C(C)C)N(C)C(=O)C3(F)CCN(C(=O)C#CC(C)(C)N(C)C)CC3)C(=O)N3CCCC(N3)C(=O)OCC(C)(C)C2)C1 is ____.
*A* 88.9%

---

# System: 485176-168-R4-J1-PDC complex spheroid growth
# Assay text: Anticancer human tumor 485176-168-R4-J1-PDC cell line growth inhibition [RAS];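 also: spheroids exposed to compounds for seven days before readout; luminescence viability expressed relative to DMSO vehicle wells set as 100%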
# Test parameters: second compound 0.000949 µM; first compound 0.0316 µM; stronger effect = lower value
Measured property: viability, T/C (%)
Field format: number, assumed %, no unit text.

Recorded results for 3 compounds are shown here.
| Compound | viability, T/C, % |
| --- | --- |
| O=C(c1ccc(F)c(F)c1Nc1ccc(I)cc1F)N1CC(O)([C@@H]2CCCCN2)C1 + CCn1c(-c2cccnc2C(C)OC)c2c3cc(ccc31)N1CCOC(CC(NC(=O)C(C(C)C)N(C)C(=O)C3(F)CCN(C(=O)C#CC(C)(C)N(C)C)CC3)C(=O)N3CCCC(N3)C(=O)OCC(C)(C)C2)C1 | 86.3 |
| O=C(c1ccc(F)c(F)c1Nc1ccc(I)cc1F)N1CC(O)([C@@H]2CCCCN2)C1 + CCn1c(-c2cc(N3CCN(C)CC3)cnc2C(C)OC)c2c3cc(ccc31)-c1csc(n1)CC(NC(=O)C1CC1C)C(=O)N1CCCC(N1)C(=O)OCC(C)(C)C2 | 65.1 |
| C=CC(=O)Nc1cc(Nc2nccc(-c3cn(C)c4ccccc34)n2)c(OC)cc1N(C)CCN(C)C + CCn1c(-c2cc(N3CCN(C)CC3)cnc2C(C)OC)c2c3cc(ccc31)-c1csc(n1)CC(NC(=O)C1CC1C)C(=O)N1CCCC(N1)C(=O)OCC(C)(C)C2 | 95.6 |

# ---- query compound ----
*Q* Fill blank: measured viability, T/C of the compound Cc1nc(N2CCC3(CC2)COC(C)C3N)c(CO)nc1Sc1ccnc(N)c1Cl (centres undefined) + CCn1c(-c2cccnc2C(C)OC)c2c3cc(ccc31)N1CCOC(CC(NC(=O)C(C(C)C)N(C)C(=O)C3(F)CCN(C(=O)C#CC(C)(C)N(C)C)CC3)C(=O)N3CCCC(N3)C(=O)OCC(C)(C)C2)C1 is ____.
*A* 96.6
